Reference for the values: patent US20260151519A1

System under test: T1, Human Nectin-4 (human, UniProt Q96NY8 32-349, limits assumed)
T1 construct: Protein immobilised on the SPR chip; also called target protein
T1 sequence: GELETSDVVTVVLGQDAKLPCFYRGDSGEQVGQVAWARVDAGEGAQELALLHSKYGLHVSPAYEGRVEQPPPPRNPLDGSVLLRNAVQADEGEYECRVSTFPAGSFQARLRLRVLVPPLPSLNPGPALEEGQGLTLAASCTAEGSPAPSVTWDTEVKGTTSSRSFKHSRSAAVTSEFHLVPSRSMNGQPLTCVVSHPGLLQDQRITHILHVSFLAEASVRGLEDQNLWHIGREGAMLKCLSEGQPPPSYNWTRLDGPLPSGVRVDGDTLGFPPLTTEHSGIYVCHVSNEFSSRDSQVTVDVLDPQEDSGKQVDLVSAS
Assay text: Table 2B (DELFIA or SPR)
Bridges are numbered along the chain shown (N, C = ends). Primed or numbered codes have the meaning given here. Where no end group is shown, it is not given here. [ ]: non-standard residue; d: D form. The star is where a group is joined. Biotin = O=C1N[C@H]2[C@H](CS[C@H]2CCCCC(=O)*)N1; Cit = NC(=O)NCCC[C@H](N)C(=O)O; PEG4″ = 4(ethylene glycol); PEG4′ = not defined here
Assay endpoint: log10 Kd (log10 of the value in nM)

{"columns": ["Binder", "log10 Kd"],
 "data": [
  ["Ac-CEYDEQFFTALKRLRGGDICYYISAQFNTLPDLCIEEILENLGC-OH (designed binder, disulfide 1-34, 20-44) [C100]", 0.68],
  ["{Biotin-PEG4″}-CEYDEEFFTALKRLRGGDICDYIQASFQYLPGLCIEEILDNLGCS-OH (designed binder, disulfide 1-34, 20-44) [C200]", 0.30],
  ["{Biotin-PEG4″}-CEYDEEFFTALKRLRGGDICYYIQASFQYLPGECIEEILDNLGCS-OH (designed binder, disulfide 1-34, 20-44) [C177]", 0.30],
  ["{Biotin-PEG4″}-CEYDEEFFTALASLRGGDICYYIQAKFQYLPGLCIEEILDNLGCS-OH (designed binder, disulfide 1-34, 20-44) [C161]", 0.88],
  ["{Biotin-PEG4′}-CDYDEQFFTALKRLRGADICEYIQASFQYLPGECIEEILDNLGCS (designed binder, cysteine pairing not given here) [C208]", 0.01],
  ["Ac-CEYDEEFFTGLKRLRGGDICYYIKKKFKKVPDLCIEEILDKLGC-OH (designed binder, disulfide 1-34, 20-44) [C29]", 0.59],
  ["{Biotin-PEG4″}-CEYDEEFFTALA[Cit]LRGGDICYYIQAKFQYLPGLCIEEILDNLGCS-OH (designed binder, disulfide 1-34, 20-44) [C163]", 0.28],
  ["Ac-CEYDEEFFTALSRLRGGDICYYIQQAFQYLPGLCIEEILDNLGC-NH2 (designed binder, disulfide 1-34, 20-44) [C132]", 1.48],
  ["Ac-CEYDEEFFTALKRLRGGDICYYIQKAFQYLPGLCIEEILDNLGCS (designed binder, disulfide 1-34, 20-44) [C120]", 0.32]
]}
